target: human PD-L1/His fusion protein (human, UniProt Q9NZQ7 19-239); assay: BLI Octet RED96, antibody on AHC sensor, single conc. PD-L1/His; test group 1
Sequence (Q9NZQ7 19-239 limits assumed): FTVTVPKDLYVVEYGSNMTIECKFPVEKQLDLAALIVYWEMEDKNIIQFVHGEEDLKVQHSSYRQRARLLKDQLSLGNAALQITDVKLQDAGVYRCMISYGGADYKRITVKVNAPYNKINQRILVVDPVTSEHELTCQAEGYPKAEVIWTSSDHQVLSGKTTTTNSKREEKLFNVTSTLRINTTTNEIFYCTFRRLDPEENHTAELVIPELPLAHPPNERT
Reported koff values are given for each entry in this list.

INSERT INTO assay_data (binder, measured_quantity, recorded_value) VALUES
  ('HuEM0005-86-1 (antibody, human IgG1, V domains shown) VH: EVQLVQSGAEVKKPGASVKVSCKASGYTFTTYGINWVRQAPGQGLEWMGYIYIGNGYTEYNEKFKGRVTMTTDTSTSTAYMELSSLRSDDTAVYYCARDLMVIAPKTMDYWGQGTTVTVSS VL: DIQMTQSPSSVSASVGDRVTITCKASQDVGTAVAWYQQKPGKAPKLLIYWASTRHTGVPDRFTGSGSGTDFTLTISSLQPEDFATYYCQQYSSYPYTFGGGTKVEIK', 'koff', '0.00147 s⁻¹'),
  ('HuEM0005-86-3 (antibody, human IgG1, V domains shown) VH: EVQLVQSGAEVKKPGASVKVSCKASGYTFTTYGINWVRQAPGQGLEWMGYIYIGNGYTEYNEKFKGRVTLTSDTSTSTAYMELSSLRSDDTAVYYCARDLMVIAPKTMDYWGQGTTVTVSS VL: DIQMTQSPSSVSASVGDRVTITCKASQDVGTAVAWYQQKPGKAPKLLIYWASTRHTGVPDRFTGSGSGTDFTLTISSLQPEDFATYYCQQYSSYPYTFGGGTKVEIK', 'koff', '0.00142 s⁻¹'),
  ('HuEM0005-86-4 (antibody, human IgG1, V domains shown) VH: EVQLVQSGAEVKKPGASVKVSCKASGYTFTTYGINWVRQAPGQGLEWIGYIYIGNGYTEYNEKFKGRVTLTSDTSTSTAYMELSSLRSDDTAVYYCARDLMVIAPKTMDYWGQGTTVTVSS VL: DIQMTQSPSSVSASVGDRVTITCKASQDVGTAVAWYQQKPGKAPKLLIYWASTRHTGVPDRFTGSGSGTDFTLTISSLQPEDFATYYCQQYSSYPYTFGGGTKVEIK', 'koff', '0.000957 s⁻¹'),
  ('HuEM0005-86-2 (antibody, human IgG1, V domains shown) VH: EVQLVQSGAEVKKPGASVKVSCKASGYTFTTYGINWVRQAPGQGLEWMGYIYIGNGYTEYNEKFKGRVTMTSDTSTSTAYMELSSLRSDDTAVYYCARDLMVIAPKTMDYWGQGTTVTVSS VL: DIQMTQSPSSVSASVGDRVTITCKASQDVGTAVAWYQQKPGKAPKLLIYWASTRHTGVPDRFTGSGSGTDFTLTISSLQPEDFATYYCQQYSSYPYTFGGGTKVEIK', 'koff', '0.000887 s⁻¹'),
  ('EM0005-mAb86c (antibody, human IgG1, kappa, V domains shown, Chimeric full-length IgG1; also called EM0005-86c; EM0005-86C) VH: QVQLQQSGAELVRPGSSVKMSCKTSGYTFTTYGINWVKQRPGQGLEWIGYIYIGNGYTEYNEKFKGKATLTSDPSSRTAYMQLSSLTSEDSAIYFCARDLMVIAPKTMDYWGQGTSVTVSS VL: DIQMNQSHKFMSTSVGDRVSITCKASQDVGTAVAWYQQKPGQSPKLLIYWASTRHTGVPDRFTGGGSGTDFTLTISNVQSEDLADYFCQQYSSYPYTFGGGTKLEMKR', 'koff', '0.00123 s⁻¹');

I have this binder here, HuEM0005-86-6 (antibody, human IgG1, V domains shown, measured without the G55A change) VH: EVQLVQSGAEVKKPGASVKVSCKTSGYTFTTYGINWVRQAPGQGLEWIGYIYIGNGYTEYNEKFKGKATLTSDPSTRTAYMELSSLRSDDTAVYYCARDLMVIAPKTMDYWGQGTTVTVSS VL: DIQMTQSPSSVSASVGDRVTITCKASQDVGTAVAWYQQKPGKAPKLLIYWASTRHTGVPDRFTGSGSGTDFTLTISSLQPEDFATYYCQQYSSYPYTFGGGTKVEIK , and I need its recorded koff. 0.00122 s⁻¹

Attribution: patent US20230242675A1
